These measurements were taken from patent US20230398130A1.

# Tested on: ISC-enriched organoids
# protocol notes: Primary screen, 384-well 2.5-D organoid differentiation (ENR+CD, 6 days, Target Selective Inhibitor Library, vs whole-plate median): ATP (CellTiter-Glo 3D, CTG)
# applied conditions: dose 2.00 uM
compounds and their reported Z.CTG (standard z score)
Just the number, please.

compound	Z.CTG (standard z score)
CCOC(=O)N1c2ccc(C(F)(F)F)cc2[C@@H](N(Cc2cc(C(F)(F)F)cc(C(F)(F)F)c2)C(=O)OC)C[C@H]1CC	−0.289
CCC(COC(=O)c1cc(OC)c(OC)c(OC)c1)(c1ccccc1)N(C)C (stereo not shown)	−2.409
CNCc1ccc(-c2cc(-c3nc(-c4ccc(S(=O)(=O)C(C)C)cc4)cnc3N)on2)cc1	−1.713

Now let's try a different one.
# Z.CTG (standard z score) (compound: `COc1cc2ncnc(Nc3ccc(Cl)cc3F)c2cc1OC` ) is −3.135
